- RUN DESCRIPTION: Solubility in water
- Type: physicochemical
OBSERVED PROPERTY: solubility

{"columns": ["COMPOUND", "VAL"],
 "data": [
  ["CNC(=O)c1cnn(-c2nc(N)c3ncn([C@@H]4O[C@H](CO)[C@@H](O)[C@H]4O)c3n2)c1 [regadenoson]", "~50 µg/mL"]
]}
